O.D.450 (normalized) values for the binders below.
- Tested On: tooth pellicle (thin film derived from salivary glycoproteins, formed in a human mouth) (human)
- Test Protocol: phage ELISA on 30 min pellicle-coated bovine enamel, anti-M13-HRP, normalized to DenP3; no-phage control 0.094

Binder: SFSWHRGDWELGHQSKTMGM [DenP106]
O.D.450 (normalized): 1.52
//
Binder: HDHLSWWGQFDRQNLL [DenP116]
O.D.450 (normalized): 1.05
//
Binder: FPSKWYNHHRHITGHV [DenP112]
O.D.450 (normalized): 0.413
//
Binder: DGYKLQTSLDWQMWNP [DenP111]
O.D.450 (normalized): 1.05
//
Binder: GINKGQRPPWESWHEN [DenP114]
O.D.450 (normalized): 0.703
//
Binder: TTYHYKNIYQESYQQRNPAV [DenP3]
O.D.450 (normalized): 1
//
Binder: GYQPHYVDHTIGWQPMIRPN [DenP104]
O.D.450 (normalized): 0.79
//
Binder: NLHSPWPSHAAHHWST [DenP118]
O.D.450 (normalized): 0.641
//
Binder: GGMGALESYRQWNHLA [DenP113]
O.D.450 (normalized): 1.35
//
Binder: AIEYQHSATTPWTMRTRLPP [DenP101]
O.D.450 (normalized): 0.467
//
Binder: WHEPHQFSGENTDYSSSMGT [DenP109]
O.D.450 (normalized): 0.716
//
Binder: MPGHQESIKVQNWNRV [DenP117]
O.D.450 (normalized): 0.433
//
Binder: SMWHDITKRYRNPSEMVSAY [DenP107]
O.D.450 (normalized): 0.726
//
Binder: EFYPFAEVPPEKSGIGRQVF [DenP102]
O.D.450 (normalized): 0.52
//
Binder: THGNKHQSWTYPSEINHKNY [DenP108]
O.D.450 (normalized): 1.15

The measured values listed here are drawn from patent US20100247589A1.
